biological target: recombinant 15-PGDH (Homo sapiens (Human), UniProt P15428); experiment: Inhibition of enzymatic activity of recombinant 15-PGDH in vitro (NADH generation); assay type: biochemical; conditions: Table 2 summary; read-out: IC50
Sequence (P15428 whole entry): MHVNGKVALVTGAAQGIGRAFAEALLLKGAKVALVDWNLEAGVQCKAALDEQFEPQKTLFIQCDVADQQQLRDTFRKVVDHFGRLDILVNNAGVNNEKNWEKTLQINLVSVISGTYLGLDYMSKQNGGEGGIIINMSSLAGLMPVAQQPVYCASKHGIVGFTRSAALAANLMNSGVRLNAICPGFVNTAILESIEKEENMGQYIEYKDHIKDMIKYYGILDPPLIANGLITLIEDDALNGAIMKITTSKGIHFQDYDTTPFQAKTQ
measurement.name: pIC50
Conceptually, pIC50 converts a concentration in mol/L into minus its log10.

The compound listed as CCCC[S+]([O-])c1sc2nc(-c3nccs3)ccc2c1N (stereo not shown) has a reported pIC50 of 8.85

====

# reported IC50; entries follow
target: recombinant 15-PGDH (Homo sapiens (Human), UniProt P15428); assay: Inhibition of enzymatic activity of recombinant 15-PGDH in vitro (NADH generation); assay type: biochemical; details: read-out: Enzyme Inhibitor IC50 (nM) at 5 nM 15-PGDH; 5 nM recombinant human 15-PGDH

The compound listed as CCCC[S+]([O-])c1ncccc1N (centres unmarked) [SW208070] has a reported IC50 of > 7500 nM

The compound listed as CCCCSc1nc2nc(-c3cccs3)ccc2[nH]1 [SW208494] has a reported IC50 of > 7500 nM

The compound listed as CCCCSc1cc2ccc(-c3ccccc3)nc2s1 [SW208430] has a reported IC50 of > 2500 nM

The compound listed as CCCCS(=O)(=O)c1sc2nc(-c3nccs3)cc(-c3ccc(CO)cc3)c2c1N [SW209333] has a reported IC50 of > 2500 nM

The compound listed as CCCCS(=O)(=O)c1cc2ccc(-c3ccccc3)nc2s1 [SW208434] has a reported IC50 of > 2500 nM

The compound listed as CCCC[S+]([O-])CSc1nc(-c2nccs2)cc(-c2nccn2C)c1C#N (centres unmarked) [SW209427] has a reported IC50 of 1480 nM

Others:
The compound listed as CCCCSc1sc2nc(-c3ccccc3)ccc2c1N [SW208435] has a reported IC50 of > 2500 nM

The compound listed as CC(=O)OCCCS(=O)(=O)c1sc2nc(-c3cccs3)cc(-c3ccccc3)c2c1N [SW209272] has a reported IC50 of 530 nM

The compound listed as CC(=O)OCCC[S+]([O-])c1sc2nc(-c3cccs3)cc(-c3ccccc3)c2c1N (centres unmarked) [SW209273] has a reported IC50 of 21.6 nM

The compound listed as CCCCSc1ncccc1N [SW208068] has a reported IC50 of > 7500 nM

The compound listed as CC(C)[S+]([O-])c1sc2nc(-c3nccs3)cc(-c3cccnc3)c2c1N (centres unmarked) [SW208778] has a reported IC50 of 3.99 nM
